The entries below come with measured maximum binding nm shift values attached.
assayed_target: Human Siglec-9-Fc (recombinant human Siglec-9 extracellular domain Q18-G348 fused to human IgG1 Fc) (human)
Sequence (chain, as listed by the source limits assumed): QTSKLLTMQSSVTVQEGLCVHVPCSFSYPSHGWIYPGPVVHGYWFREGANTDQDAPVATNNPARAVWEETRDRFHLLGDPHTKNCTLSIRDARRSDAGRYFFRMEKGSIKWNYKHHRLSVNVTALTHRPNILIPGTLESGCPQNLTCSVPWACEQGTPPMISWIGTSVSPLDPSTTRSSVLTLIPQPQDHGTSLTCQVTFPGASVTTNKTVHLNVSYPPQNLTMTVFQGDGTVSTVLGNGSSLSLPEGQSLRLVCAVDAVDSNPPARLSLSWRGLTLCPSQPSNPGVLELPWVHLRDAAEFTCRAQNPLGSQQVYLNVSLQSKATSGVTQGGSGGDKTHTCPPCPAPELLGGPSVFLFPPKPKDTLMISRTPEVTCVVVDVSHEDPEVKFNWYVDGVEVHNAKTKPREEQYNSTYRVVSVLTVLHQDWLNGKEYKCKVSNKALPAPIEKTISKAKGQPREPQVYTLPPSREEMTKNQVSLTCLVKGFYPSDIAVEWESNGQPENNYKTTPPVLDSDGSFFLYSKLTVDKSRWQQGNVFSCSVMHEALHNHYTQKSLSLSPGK
test_description: BLI binning, hSiglec-9-Fc on AHC sensor; competitor bound first (row): 12L19
measured_parameter: maximum binding nm shift (nm)

[[record]]
binder = "12P18 (antibody, V domains shown) VH: QVQLQQSGAELVRPGASVTLSCKASGYTFTDYEMHWVKQTPVHGLEWIGAIDPEAGGTAYNRKFKGKAILTADKSSSTAYMELRSLTSEDSAVYYCTNLGRDYWGQGTTLTVSS VL: DIVMSQSPSSLAVSVGEKVTMSCKSSQSLLYSSTQKNYLAWYQQKPGQSPKRLIYWASTRESGVPDRFTGSGSGTDFTLTISSVKAEDLAVYYCQQYYSYWTFGGGTKLEIK"
measured_parameter = "maximum binding nm shift"
reading = 0.518

[[record]]
binder = "12G23 (antibody, V domains shown) VH: EVQLQQSGPELVRPGASVKMSCKASGYTFTDYNMHWVKQSHGKSLEWIGYINPNNGGTSYNQKFKGKATLTVNKSSSTAYMELRSLTSDDSAVYYCAREGYGNYPFYWGQGTTLTVSS VL: DIVLTQSPASLAVSLGQRVTISCRGSESVEYYGTSLMQWYQQKPGQPPKLLIYAASNVESGVPARFSGSGSGTDFSLNIHPVEEDDIAMYFCQQDRKVPYTFGGGTKLEIK"
measured_parameter = "maximum binding nm shift"
reading = 0.263

[[record]]
binder = "13O18 (antibody, V domains shown) VH: EVQLQQSGPELVRPGASVKMSCKASGYTFTDYNMHWVKQSHGKSLEWIGYINPNNGGTTYNQNFKGKATLTVNKSSSTAYMELRSLTSEDSAVYYCAREGYGNYPFYWGQGTTLTVSS VL: DIVLTQSPASLAVSLGQRVTISCRASESVEYYGTSLMQWYQQKPGQPPKLLIYAASNVESGVPARFSGSGSGTDFSLNIHPVEEDDIAMFFCQQDRKVPYTFGGGTKLEIK"
measured_parameter = "maximum binding nm shift"
reading = 0.251

